Each entry below carries its recorded z-score.
- Test Name: change in splice reporter luminescence, either direction, cell-based, HEK293, spliceosome inhibition project, primary screen (AID 1101);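 note: HEK293 cells carrying a splicing-competent luciferase reporter gene; test concentration not given here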
- Conditions: HEK293 splicing luciferase reporter, 24 h, higher = more signal, called active from +8 up or from −8 down

{"Molecule": "C=C(CCCC)/C(=C/C[C@H](OC(C)=O)c1ccccc1OCCO)c1cnc2ccccc2c1", "z-score": 1.81}
{"Molecule": "COC(=O)[C@@]1(Cc2ccc(OC)cc2)[C@H]2c3cc(C(=O)N4CCCC4)n(CCCNc4ncc(C(F)(F)F)cc4Cl)c3C[C@H]2CN1C(=O)c1ccccc1", "z-score": -2.98}
{"Molecule": "[N-]=[N+]=NCc1ccccc1[C@@H]1OC(c2ccc(OCCCO)cc2)=N[C@]1(CCS(=O)(=O)c1ccccc1)C(=O)N1CCOCC1", "z-score": -1.56}
{"Molecule": "COc1ccc([C@H]2C[C@H]3C(Br)=C[C@@]2(CO)C(=O)[C@]32CO2)cc1", "z-score": -0.206}
{"Molecule": "COCC(=C=CC[C@H](O)c1cccc(OCCO)c1)CCO", "z-score": 0.105}
{"Molecule": "COC(=O)[C@@]1(Cc2ccc(OC)cc2)[C@H]2c3cc(C(=O)N4CCCC4)n(Cc4nc5ccccc5[nH]4)c3C[C@H]2CN1C(=O)c1ccccc1", "z-score": -1.29}
{"Molecule": "O=C1OCCC/C=C\\[C@H]2OC34C=CCN(c5ccc6ccccc6c5)C(=O)[C@H]3N(CCCCCO)C(=O)[C@@H]4C12 (some centres undefined)", "z-score": -0.447}
{"Molecule": "COCCCNC(=O)[C@@H]1c2ccccc2C(=O)N(Cc2ccccc2OC)[C@H]1c1ccc(CO)cc1", "z-score": -1.06}
{"Molecule": "C#CCNCc1ccccc1", "z-score": 0.258}
